- Tested on: MCF7
- PROCEDURE_SUMMARY: NCI tumour cell line growth inhibition, 48 h
Active and inactive are the calls of the source. Cut-off read from the data, not from the text of the source: active = GI50 up to about 1.1 µM and inactive = higher. Residues, ends and D or L forms follow the SMILES beside them. *: point of attachment. Boc = CC(C)(C)OC(=O)*; OBn = c1ccc(CO*)cc1
Lab note: assign the record to one of 1 = active, 0 = inactive

{"MOLECULE": "CC1=C(C(=O)OCCc2ccc([N+](=O)[O-])cc2)C(c2cccc([N+](=O)[O-])c2)C(C(=O)OC(C)C)=C(C)N1 (stereo not drawn)", "ASSIGNED_CATEGORY": 0}
{"MOLECULE": "N#Cc1nc(C#N)c(N)[nH]1", "ASSIGNED_CATEGORY": 0}
{"MOLECULE": "CC(C)C(NC(=O)CNC(=O)C1CCCN1C(=O)C(NC(=O)OC(C)(C)C)C(C)C)C(=O)NCC(=O)OCc1ccccc1 (stereo not drawn) (Boc-VPGVG-OBn; configuration not given here)", "ASSIGNED_CATEGORY": 0}

What call does the record list for `CC(=O)OCC(=O)[C@@]12OC(C)(C)O[C@@H]1C[C@H]1[C@@H]3CC=C4C[C@@H](O)CC[C@]4(C)[C@H]3CC[C@@]12C` ?
0

What call does the record list for `CN(N=O)C(=O)Nc1ccc(C(=O)O)cc1` ?
0

What call does the record list for `O=C(O)c1nc(-c2ccccc2)[nH]c1C(=O)O` ?
0

What call does the record list for `O=c1[nH]c2nc3ccccc3c(=O)n2/c1=C/c1ccc(Cl)cc1` ?
0

What call does the record list for `N=C(N)N/N=C/c1c(-c2ccc([N+](=O)[O-])cc2)nc2sccn12` ?
0

What call does the record list for O=C(O)C(C1NCCS1)N1C(=O)c2ccccc2C1=O (stereo not drawn) ?
0

What call does the record list for CCOC1(OCC)C2C=CC1C(COS(=O)(=O)c1ccc(C)cc1)C2COS(=O)(=O)c1ccc(C)cc1 (stereo not drawn) ?
0

What call does the record list for `Cc1ccnc(NC(NC(=O)c2ccccc2)(C(F)(F)F)C(F)(F)F)c1` ?
0

What call does the record list for `CCOC(=O)C1=NN(c2ccc([N+](=O)[O-])cc2)[C@@]2(C)C[C@]3(c4ccccc4)N(c4ccc([N+](=O)[O-])cc4)N=C(C(=O)OCC)N3c3ccccc3N12` ?
0

What call does the record list for COc1ccc(C(CC(=O)c2ccccc2)C(=O)c2ccc3c(c2)OCO3)cc1 (stereo not drawn) ?
0

What call does the record list for CC[C@]12C=CCN3CC[C@@]4(c5cc(Br)c(OC)cc5N(C)[C@H]4[C@@](O)(C(=O)NC(Cc4c[nH]c5ccccc45)C(=O)OC)[C@@H]1O)[C@@H]32 (stereo partly drawn) ?
0

What call does the record list for `O[C@@]12Cc3c([nH]c4ccccc34)[C@@H]3Oc4cccc5c4[C@@]31CCN(CC1CC1)[C@@H]2C5` ?
0

* * *

- Tested on: HCC 2998
- PROCEDURE_SUMMARY: NCI tumour cell line growth inhibition, 48 h
The source made the active and inactive calls. Cut-off read from the data, not from the text of the source: active = GI50 up to about 1.1 µM and inactive = higher.
Lab note: assign the record to one of y (active), n (inactive)

Please review the entries below; each comes with its answer.
{"MOLECULE": "O=C(NN1CCCCC1)c1cc2cc(CCl)ccc2oc1=O", "ASSIGNED_CATEGORY": "n"}
{"MOLECULE": "O=C1/C(=C/c2ccco2)N=C(c2ccccc2)N1c1ccc(S(=O)(=O)Nc2nccs2)cc1", "ASSIGNED_CATEGORY": "n"}
{"MOLECULE": "CC1(C)CCCCCCCCCC(C)(CCCCCCCCCCCCO)C1=O (stereo not given)", "ASSIGNED_CATEGORY": "y"}
{"MOLECULE": "CCN1CN(c2ccccc2)C2(CCN(CC(CC3OCCO3)c3ccc(F)cc3)CC2)C1=O (stereo not given)", "ASSIGNED_CATEGORY": "n"}
{"MOLECULE": "C=C(CN(C)C)C(=O)c1ccccc1[N+](=O)[O-]", "ASSIGNED_CATEGORY": "n"}
{"MOLECULE": "O=C(O)c1nc(-c2ccccc2)[nH]c1C(=O)O", "ASSIGNED_CATEGORY": "n"}
{"MOLECULE": "COc1ccccc1-c1cc(=O)c2ccc(OC)c(OC)c2o1", "ASSIGNED_CATEGORY": "n"}
{"MOLECULE": "CCCCCCCC1c2cc3nc(cc4[nH]c(cc5nc(cc([nH]2)[C@@]1(C)CC(=O)N(C)C)C(C)=C5CCC(=O)O)c(CCC(=O)O)c4C)C=C3C (stereo not given in full)", "ASSIGNED_CATEGORY": "n"}
{"MOLECULE": "O=Cc1ccc2c(c1)CC1(C2)Cc2ccc3c(c2C1)CCC3 (stereo not given)", "ASSIGNED_CATEGORY": "n"}

For the next question, use this molecule.
What call does the record list for `CC(C)(C)c1cc(-c2cc(C(C)(C)C)n(-c3ccccc3)n2)nn1-c1ccccc1` ?
n
